System: EFO-27 cells
assayRemarks: Internalization/efflux studies in EFO-27 cells
Assay type: cell-based, human
cond: of added
Answer each item with its documented Bound %.
Write the answer as a number in %, unit excluded.

// recorded Bound % for N=C(N)NCCC[C@@H](NC(=O)[C@H](Cc1c[nH]cn1)NC(=O)[C@H](CO)NC(=O)[C@H](Cc1c[nH]c2ccccc12)NC(=O)[C@H](Cc1c[nH]cn1)NC(=O)[C@@H]1CCC(=O)N1)C(=O)N[C@@H](Cc1c[nH]c2ccccc12)C(=O)N[C@@H](Cc1ccc(O)c(I)c1)C(=O)N1CCC[C@H]1C(=O)NNC(N)=O [125I-LHRH II, Darg^6,^125I-Tyr^8,azaGly^10-LHRH-II, reference compound] : 1.20

get_value(item= N=C(N)NCCC[C@H](NC(=O)[C@@H](Cc1ccc2ccccc2c1)NC(=O)CN1CCN(CC(=O)O)CCN(CC(=O)O)CCN(CC(=O)O)CC1)C(=O)N[C@@H](Cc1c[nH]c2ccccc12)C(=O)N[C@@H](CO)C(=O)N[C@@H](Cc1cnc[nH]1)C(=O)N[C@H](CCCNC(=N)N)C(=O)N[C@@H](Cc1c[nH]c2ccccc12)C(=O)N[C@@H](Cc1ccc(C(=O)c2ccccc2)cc1)C(=O)N1CCC[C@H]1C(=O)NNC(N)=O [BRU-2813] , readout=Bound %) returns 19.10

Bound % recorded for this compound, N=C(N)NCCC[C@@H](NC(=O)[C@H](Cc1c[nH]cn1)NC(=O)[C@H](CO)NC(=O)[C@H](Cc1c[nH]c2ccccc12)NC(=O)[C@H](Cc1c[nH]cn1)NC(=O)[C@@H](Cc1ccc2ccccc2c1)NC(=O)CN1CCN(CC(=O)O)CCN(CC(=O)O)CCN(CC(=O)O)CC1)C(=O)N[C@@H](Cc1c[nH]c2ccccc12)C(=O)N[C@@H](Cc1ccc(C(=O)c2ccccc2)cc1)C(=O)N1CCC[C@H]1C(=O)NNC(N)=O [BRU-2666] , is 12.20

Measured Bound % of N=C(N)NCCC[C@H](NC(=O)[C@@H](Cc1ccc2ccccc2c1)NC(=O)CN1CCN(CC(=O)O)CCN(CC(=O)O)CCN(CC(=O)O)CC1)C(=O)N[C@@H](Cc1c[nH]c2ccccc12)C(=O)N[C@@H](CO)C(=O)N[C@@H](Cc1c[nH]cn1)C(=O)N[C@H](CCCNC(=N)N)C(=O)N[C@@H](Cc1c[nH]c2ccccc12)C(=O)N[C@@H](Cc1ccc(C(=O)c2ccccc2)cc1)C(=O)N1CCC[C@H]1C(=O)NCCOCCN [BRU-2968] : 23.59
